Dear all, this message contains MIC results, target or system K. pneumoniae H 525.
READOUT TYPE: MIC (µg/mL)

INSERT INTO measurements (compound, readout_type, quantity_unit, recorded_result) VALUES
  ('O=C(NOC[C@H]1CCCCCN1)[C@@H]1CC[C@@H]2CN1C(=O)N2OC(F)(F)C(=O)O [Example 6]', 'MIC', 'µg/mL', 1),
  ('O=C(NOC[C@@H]1CCCCCN1)[C@@H]1CC[C@@H]2CN1C(=O)N2OC(F)(F)C(=O)O [Example 7]', 'MIC', 'µg/mL', 2),
  ('O=C(NOC1CCNC1)[C@@H]1CC[C@@H]2CN1C(=O)N2OC(F)(F)C(=O)O (some centres unmarked) [Example 3]', 'MIC', 'µg/mL', 4),
  ('O=C(NOC[C@H]1CCCN1)[C@@H]1CC[C@@H]2CN1C(=O)N2OC(F)(F)C(=O)O [Example 2]', 'MIC', 'µg/mL', 1),
  ('NCCONC(=O)[C@@H]1CC[C@@H]2CN1C(=O)N2OC(F)(F)C(=O)O [Example 8]', 'MIC', 'µg/mL', 4);

a = O=C(NOC[C@@H]1CCCCN1)[C@@H]1CC[C@@H]2CN1C(=O)N2OC(F)(F)C(=O)O [Example 5]
b = O=C(NOC[C@H]1CCCCN1)[C@@H]1CC[C@@H]2CN1C(=O)N2OC(F)(F)C(=O)O [Example 4]
c = O=C(NOC[C@@H]1CCCN1)[C@@H]1CC[C@@H]2CN1C(=O)N2OC(F)(F)C(=O)O [Example 1]
Give the ascending ranking of the items by reported MIC. Please, when replying, give the labels in the order that was requested.
b, c, a

---

E. coli M 36 data, read-out MIC
READOUT TYPE: MIC (µg/mL)

1 = O=C(NOC[C@@H]1CCCCN1)[C@@H]1CC[C@@H]2CN1C(=O)N2OC(F)(F)C(=O)O
2 = O=C(NOC[C@H]1CCCCN1)[C@@H]1CC[C@@H]2CN1C(=O)N2OC(F)(F)C(=O)O
Lab notebook, comparison: 1 versus 2 , higher MIC goes to which? Let me know the label of the one you choose.
1

a = O=C(NOC[C@@H]1CCCN1)[C@@H]1CC[C@@H]2CN1C(=O)N2OC(F)(F)C(=O)O
b = O=C(NOC[C@@H]1CCCCCN1)[C@@H]1CC[C@@H]2CN1C(=O)N2OC(F)(F)C(=O)O
Compare a and b and name the one whose reported MIC is smaller. Choose, then provide that item's label.
a

P = O=C(NOC[C@H]1CCCCCN1)[C@@H]1CC[C@@H]2CN1C(=O)N2OC(F)(F)C(=O)O
Q = O=C(NOC[C@H]1CCCN1)[C@@H]1CC[C@@H]2CN1C(=O)N2OC(F)(F)C(=O)O
R = NCCONC(=O)[C@@H]1CC[C@@H]2CN1C(=O)N2OC(F)(F)C(=O)O
S = O=C(NOC1CCNC1)[C@@H]1CC[C@@H]2CN1C(=O)N2OC(F)(F)C(=O)O (some centres unmarked)
Sort low-to-high on MIC, please. List the labels according to the requested ordering.
Q, P, R, S
(Q: 0.5 µg/mL, P: 1 µg/mL, R: 2 µg/mL, S: 4 µg/mL)

---

The following compounds each carry a recorded MIC for E. coli M 138.
READOUT TYPE: MIC (µg/mL)

INSERT INTO assay_data (compound, quantity_unit, recorded_result) VALUES
  ('NCCONC(=O)[C@@H]1CC[C@@H]2CN1C(=O)N2OC(F)(F)C(=O)O [Example 8]', 'µg/mL', 4),
  ('O=C(NOC[C@@H]1CCCN1)[C@@H]1CC[C@@H]2CN1C(=O)N2OC(F)(F)C(=O)O [Example 1]', 'µg/mL', 2);

A = O=C(NOC[C@@H]1CCCCN1)[C@@H]1CC[C@@H]2CN1C(=O)N2OC(F)(F)C(=O)O [Example 5]
B = O=C(NOC[C@H]1CCCCCN1)[C@@H]1CC[C@@H]2CN1C(=O)N2OC(F)(F)C(=O)O [Example 6]
C = O=C(NOC[C@H]1CCCN1)[C@@H]1CC[C@@H]2CN1C(=O)N2OC(F)(F)C(=O)O [Example 2]
Arrange the 3 compounds from largest to smallest MIC. Reply: labels, ordered per the request.
A, B, C
(A: 4 µg/mL, B: 2 µg/mL, C: 1 µg/mL)

A = O=C(NOC[C@@H]1CCCCCN1)[C@@H]1CC[C@@H]2CN1C(=O)N2OC(F)(F)C(=O)O [Example 7]
B = O=C(NOC[C@H]1CCCCN1)[C@@H]1CC[C@@H]2CN1C(=O)N2OC(F)(F)C(=O)O [Example 4]
Hi, I'm comparing two records. Which one has the lower MIC, A or B ? Answer by stating the label of the chosen item.
B
